Data origin, for the record: a melting point compilation (Tetko et al.)

Overview of reported melting point across a group of molecules:

molecule | assayReadout | result
O=C(CSc1nnnn1-c1ccccc1)c1ccc[nH]1 | melting point | 182 to 184 °C

For the next question, use this molecule.
The measured melting point associated with "CCOC(=O)c1cnn(-c2nccs2)c1N" reads 104 to 106 °C

----------
assayReadout: melting point

Use these answered entries as a reference point.
compound | melting point
Cc1cc(Cn2cc(Br)cn2)oc1C(=O)O | 122 to 124 °C
NC(=O)c1cccnc1Sc1ccc(C(=O)O)cc1 | 257 to 259 °C
COC(=O)CS(=O)c1ccc(Br)cc1 (stereo unspecified) | 84 to 86 °C
CC(C)(C)N1C(=O)CNC1=O | 84 to 86 °C
Cc1cc(C)c(C)c(S(N)(=O)=O)c1C | 149 to 151 °C

The measured melting point associated with "CCN1CCN(C(=O)c2ccc(N)cc2)CC1" reads 125 to 127 °C

The measured melting point associated with "CN1Cc2cc(Br)ccc2NC1=O" reads 209 to 211 °C

The measured melting point associated with "Cc1ccc(NC(=O)c2ccccc2)cc1N" reads 144 to 146 °C

The measured melting point associated with "CCCCCCn1cc(S(=O)(=O)Cl)c(=O)[nH]c1=O" reads 157 to 159 °C

----------
assayReadout: melting point

Use these answered entries as a reference point.
compound | melting point
Nc1nc(-c2ccc(OCc3ccccc3)cc2)cs1 | 160 to 162 °C
NS(=O)(=O)c1ccc2c(c1)NCC2 | 164 to 166 °C
NC(=O)c1cc(F)ccc1N | 143 to 145 °C
CS(=O)(=O)N1CCN(S(=O)(=O)Cl)CC1 | 222 to 224 °C

The measured melting point associated with "Oc1ccc(I)nc1" reads 185 to 187 °C

The measured melting point associated with "Cc1ccc2ncnc(O)c2c1" reads 238 to 240 °C

----------
Overview of reported melting point across a group of compounds:

Use these answered entries as a reference point.
compound | melting point
CC(Cl)C(=O)NC(C)c1ccc2c(c1)CCCC2 (stereo not drawn) | 106 to 108 °C
CC(C)(C)OC(=O)CC(C)(C#N)C(=O)O (stereo not drawn) | 89 to 91 °C
Nc1ccc2oc(=O)ccc2c1 | 159 to 161 °C
Cc1ccc(-c2cnnc(N)n2)cc1 | 277 to 279 °C
CC(C)Cc1csc2nc(CC#N)[nH]c(=O)c12 | 218 to 220 °C

The measured melting point associated with "CCS(=O)(=O)c1ccc(Cl)cc1C(=O)O" reads 104 to 106 °C

The measured melting point associated with "O=C(O)c1n[nH]c2ccc(I)cc12" reads 285 to 287 °C

The measured melting point associated with "Cc1ccc(C)c2c(C)c(C(=O)O)oc12" reads 239 to 241 °C

----------
Overview of reported melting point across a group of compounds:

compound | melting point
COC(=O)/C=C/c1cc(OC)c(OC)c(S(=O)(=O)Cl)c1 | 160 to 162 °C
CC(C)(C)OC(=O)Nc1cc(N)c(F)cc1F | 117 to 119 °C
O=CN1CCc2cc(C(=O)CCl)ccc21 | 146 to 148 °C
Clc1ccc(-n2cccn2)nn1 | 142 to 144 °C
COC(=O)C(c1ccc(F)cc1)N1CCN(C(=O)OC(C)(C)C)CC1 (centres undefined) | 82 to 84 °C
CC(Nc1ncc(C(=O)O)cc1Cl)c1cccnc1 (centres undefined) | 184 to 186 °C
CC(C)(C)OC(=O)NC1(C(=O)O)Cc2ccccc2C1 | 162 to 164 °C
OCc1c[nH]c2ccc(Br)cc12 | 112 to 114 °C

The measured melting point associated with O=C(CCn1ccnc1)NC1CCC(C(=O)O)CC1 (centres undefined) reads 229 to 231 °C

The measured melting point associated with "Cn1cc(S(=O)(=O)NN)c(=O)n(C)c1=O" reads 134 to 136 °C

The measured melting point associated with "O=C(O)CSc1nc2cc(-c3ccccc3)sc2c(=O)n1Cc1ccccc1" reads 320 to 322 °C

The measured melting point associated with "CN1CCN(C(=O)c2ccc(Br)cc2)CC1" reads 81 to 83 °C

The measured melting point associated with "COc1ccc(-c2nc(CO)cs2)cc1" reads 74 to 76 °C

The measured melting point associated with "Nc1cc(CCCc2cccs2)no1" reads 43 to 45 °C

The measured melting point associated with "CC(C)OCc1ccccc1CNC(=O)CCl" reads 40 to 42 °C

The measured melting point associated with "Cc1cc(C)c2c(c1)NC(=O)C2=O" reads 233 to 235 °C

----------
assayReadout: melting point

The measured melting point associated with "CNCCCOc1ccc(S(C)(=O)=O)cc1" reads 43 to 45 °C

----------
assayReadout: melting point

Use these answered entries as a reference point.
molecule | result
CS(=O)c1c(N)cccc1Cl (stereo not drawn) | 107 to 109 °C
COC(=O)c1ccc(C(=O)O)s1 | 194 to 196 °C
Cc1cc2nc(Cl)c3ccccc3n2n1 | 138 to 140 °C
CCOC(=O)Nc1c(F)cc(F)cc1C#C[Si](C)(C)C | 74 to 76 °C
COC(=O)C1COc2ccccc2O1 (stereo not drawn) | 37 to 39 °C

The measured melting point associated with "O=C(Nc1ccccc1)C1CCN(C(=O)CCl)CC1" reads 143 to 145 °C

The measured melting point associated with "O=c1ccc(-n2ccnc2)n[nH]1" reads 251 to 253 °C

The measured melting point associated with "CCCCCCOc1ccc(CO)cc1" reads 32 to 34 °C

The measured melting point associated with "O=C(O)c1cc(NS(=O)(=O)c2cc([N+](=O)[O-])ccc2Cl)ccc1O" reads 43 to 45 °C

The measured melting point associated with "CS(=O)(=O)c1nc2cc(Br)cnc2[nH]1" reads 222 to 224 °C

The measured melting point associated with "O=Cc1cc(O)cc(Br)c1O" reads 145 to 147 °C

The measured melting point associated with "COCCNS(=O)(=O)c1cc(C(=O)O)ccc1OC" reads 183 to 185 °C

The measured melting point associated with "O=C(O)c1cc2ccccc2n1Cc1ccccc1" reads 197 to 199 °C

The measured melting point associated with "O=C(O)c1ccc(I)c(F)c1" reads 233 to 235 °C

The measured melting point associated with CC1CCCCN1Cc1ccc(N)cc1 (stereo not drawn) reads 54 to 56 °C

The measured melting point associated with "Nc1onc(-c2ccco2)c1-c1ccc2c(c1)OCO2" reads 138 to 140 °C

The measured melting point associated with "Cc1cc(Br)cc(C)c1NCc1ncc[nH]1" reads 142 to 144 °C

The measured melting point associated with "Cc1nc(-c2ccc(O)cc2)no1" reads 186 to 188 °C

The measured melting point associated with "COC(=O)c1ccccc1CCC(=O)O" reads 74 to 76 °C

The measured melting point associated with "Cc1nc(-c2cc(C(=O)O)cs2)cs1" reads 226 to 228 °C

The measured melting point associated with "O=Cc1cccc(OCc2occc2C(=O)O)c1" reads 123 to 125 °C

The measured melting point associated with "O=C(c1ccc(Br)cc1)N1CCc2ccccc21" reads 123 to 125 °C

----------
assayReadout: melting point

The measured melting point associated with "CCOC(=O)c1sc2cc(Cl)ccc2c1Cl" reads 75 to 77 °C

----------
assayReadout: melting point

Use these answered entries as a reference point.
molecule | result
CC1(C)CC(=O)C=C(N)C1 | 167 to 170 °C
Cc1oc(-c2ccc(Cl)c(Cl)c2)nc1C(=O)O | 264 to 266 °C
Cc1c(N)cccc1C(=O)Nc1ccccc1 | 161 to 163 °C
Cn1c(S)nnc1CC1CCS(=O)(=O)C1 (centres undefined) | 237 to 239 °C
O=C(O)CCNc1ccccn1 | 169 to 171 °C

The measured melting point associated with "O=C(O)C1CCN(C(=O)/C=C/c2ccccc2)CC1" reads 191 to 196 °C

The measured melting point associated with CC(C)CC1(C)NC(=O)NC1=O (centres undefined) reads 145 to 147 °C

The measured melting point associated with "COC(=O)CCCc1csc(N)n1" reads 69 to 71 °C

The measured melting point associated with CC1CCN(c2cc(C(=O)O)ccn2)C1 (centres undefined) reads 195 to 197 °C

The measured melting point associated with "COc1c(N)cc(C(C)(C)C)cc1C(C)(C)C" reads 79 to 81 °C

----------
assayReadout: melting point

compound | result
N#CCN1CCCC2CCCCC21 (configuration not stated) | 42 to 44 °C

For the next question, use this compound.
The measured melting point associated with "Cc1ccccc1NCC(=O)N1CCCCC1" reads 78 to 80 °C

----------
Overview of reported melting point across a group of compounds:

Use these answered entries as a reference point.
compound | result
CC(=O)c1csc(-c2csc(C)n2)c1 | 125 to 127 °C
CC(C)C(Br)C(=O)NC1CCCCCC1 (centres undefined) | 119 to 121 °C
CN(C)S(=O)(=O)c1cc(NC(=O)CCl)ccc1Cl | 183 to 185 °C

For the next question, use this compound.
The measured melting point associated with "Nc1cc(N2CCCC2=O)ccc1F" reads 106 to 108 °C
